tested on: Plasmodium berghei; assay: Luciferase/luciferin-expressing antifolate-resistant parasites were used to infect a culture of HepG2 cells that were pre-incubated with compounds. Infected hepatocytes emit light due to the luciferase reaction. Assay results are presented as the percent inhibition of light emission compared to control. […]; assay type: functional; details: sporozoite, HEPG2TOX_HILL_SLOPE 7.24, HEPG2TOX_R_SQUARED 0.0806, PBLUC_HILL_SLOPE 12.4, PBLUC_R_SQUARED 0.768, read-out: LUCIFERASE INFECTION ASSAY - IC50
Measured endpoint: IC50 (nM)

| Compound | Value |
| --- | --- |
| O=C(Nc1nc(-c2ccccn2)cs1)C1CC1c1ccccc1F (stereo unspecified) | 2990 |

###

test system: Plasmodium berghei; assay: Luciferase/luciferin-expressing antifolate-resistant parasites were used to infect a culture of HepG2 cells that were pre-incubated with compounds. Infected hepatocytes emit light due to the luciferase reaction. Assay results are presented as the percent inhibition of light emission compared to control. […]; assay type: functional; conditions: sporozoite, read-out: LUCIFERASE INFECTION ASSAY - IC90

| Structure as smiles | IC90 |
| --- | --- |
| CC(C)n1ncc2c(C(=O)Nc3ccn(C)n3)cc(-c3cccs3)nc21 | > 10 µM |
| CCCCNC(=O)c1c(NC(=O)c2cc(F)ccc2F)nc2ccccn12 | 3.57 µM |
| O=C(NCC1(c2ccccc2)CCC1)c1ccc(Cn2nnc3ccccc32)cc1 | > 10 µM |
| N#C/C(=C\c1ccc([N+](=O)[O-])s1)C(N)=S | > 13.8 µM |
| Cc1ccc(-c2noc(-c3csc([C@@H]4C[C@H](O)[C@@H](CO)O4)n3)n2)cc1 | > 9.18 µM |

###

tested on: Plasmodium berghei; assay: Luciferase/luciferin-expressing antifolate-resistant parasites were used to infect a culture of HepG2 cells that were pre-incubated with compounds. Infected hepatocytes emit light due to the luciferase reaction. Assay results are presented as the percent inhibition of light emission compared to control. […]; assay type: functional; details: sporozoite, PBLUC_HILL_SLOPE 95.6, PBLUC_R_SQUARED 0.262, read-out: LUCIFERASE INFECTION ASSAY - IC50
Measured endpoint: IC50

| Structure as smiles | Measured endpoint | Value |
| --- | --- | --- |
| CNC(=O)c1ccc(CN(C(=O)/C=C/c2ccc(-c3ccccc3F)s2)C2CC2)cc1 | IC50 | 6.3 µM |

###

system: Plasmodium berghei; test: Luciferase/luciferin-expressing antifolate-resistant parasites were used to infect a culture of HepG2 cells that were pre-incubated with compounds. Infected hepatocytes emit light due to the luciferase reaction. Assay results are presented as the percent inhibition of light emission compared to control. […]; type: functional; conditions: sporozoite, PBLUC_HILL_SLOPE 2.38, PBLUC_R_SQUARED 0.497, read-out: LUCIFERASE INFECTION ASSAY - IC50

| Structure as smiles | IC50 / µM |
| --- | --- |
| CCC(C)(C)c1ccc(Oc2ccc(NC(=O)COC(=O)C3=COCCO3)cc2)cc1 | 5.8 |

###

test system: Plasmodium berghei; test: Luciferase/luciferin-expressing antifolate-resistant parasites were used to infect a culture of HepG2 cells that were pre-incubated with compounds. Infected hepatocytes emit light due to the luciferase reaction. Assay results are presented as the percent inhibition of light emission compared to control. […]; format: functional; settings: sporozoite, PBLUC_HILL_SLOPE 1.93, PBLUC_R_SQUARED 0.641, read-out: LUCIFERASE INFECTION ASSAY - IC50

| Structure as smiles | IC50, nM |
| --- | --- |
| O=C(NC(=S)Nc1ccc(Oc2cc(C(F)(F)F)cc(C(F)(F)F)c2)cc1)c1ccccc1 | 1370 |
